This collection of values is drawn from patent US20220259288A1.

# assayTarget: T1, HLA-DRB3*02:02 (human)
# T1 construct: MHC class II molecule; how it was prepared for the assay is not described
# assaySummary: HLA class II competition binding assay
propertyLabel: IC50 (µM)

> print(dat)
                                     binder  unitannotation  measuredvalue
1  IKHIYAISSAALSAS (also called p9; P9) [ApoB100 peptide 3563.0009]              µM         0.0034

A: TLTAFGFASADLIEI [ApoB100 peptide 3563.0005]
B: LSQLQTYMIQFDQYI [ApoB100 peptide 3563.0012]
Asked: Endpoint returns the identifier whose IC50 is numerically larger, either A or B . Kindly state the label of the option you pick.
Given back: A
(A: 18.1 µM, B: 4.67 µM)
